Item-by-item account of Substrate Selectivity: Ki_AMP-pNP/Ki_cGAMP
Biological target: UniProtKB P22413
Sequence (P22413 1-925): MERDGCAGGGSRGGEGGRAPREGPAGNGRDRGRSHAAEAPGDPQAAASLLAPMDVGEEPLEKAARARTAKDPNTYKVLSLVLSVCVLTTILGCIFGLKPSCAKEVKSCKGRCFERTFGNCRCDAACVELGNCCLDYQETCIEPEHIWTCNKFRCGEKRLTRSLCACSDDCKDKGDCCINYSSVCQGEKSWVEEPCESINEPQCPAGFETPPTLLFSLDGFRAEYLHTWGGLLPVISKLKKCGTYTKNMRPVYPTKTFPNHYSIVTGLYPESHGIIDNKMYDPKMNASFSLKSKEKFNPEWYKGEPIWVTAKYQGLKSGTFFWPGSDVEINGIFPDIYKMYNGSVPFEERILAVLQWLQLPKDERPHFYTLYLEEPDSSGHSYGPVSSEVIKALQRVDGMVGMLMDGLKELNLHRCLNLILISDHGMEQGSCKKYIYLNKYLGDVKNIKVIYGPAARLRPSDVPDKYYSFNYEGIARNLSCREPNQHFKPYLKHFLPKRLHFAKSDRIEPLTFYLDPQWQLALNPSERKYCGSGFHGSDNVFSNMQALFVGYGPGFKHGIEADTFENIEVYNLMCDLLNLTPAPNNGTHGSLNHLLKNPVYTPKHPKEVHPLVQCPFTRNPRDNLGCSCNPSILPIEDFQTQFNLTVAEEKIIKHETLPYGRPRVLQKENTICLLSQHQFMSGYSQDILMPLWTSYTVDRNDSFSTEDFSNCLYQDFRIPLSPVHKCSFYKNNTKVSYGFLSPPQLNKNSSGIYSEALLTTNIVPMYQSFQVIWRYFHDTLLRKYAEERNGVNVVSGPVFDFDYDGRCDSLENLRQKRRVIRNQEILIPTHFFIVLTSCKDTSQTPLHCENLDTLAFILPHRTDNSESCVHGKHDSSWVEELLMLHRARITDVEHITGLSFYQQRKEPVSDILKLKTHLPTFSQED
Assay: Substrate selectivity ratio, inhibition of cGAMP hydrolysis versus ATP hydrolysis
Assay type: biochemical
Conditions: ratio Ki AMP-pNP / Ki cGAMP
MEASURE: Substrate Selectivity: Ki_AMP-pNP/Ki_cGAMP

1. NS(=O)(=O)NCCC1CCN(c2ncnc3c2CCNC3)CC1 [Example 232] | > 7.1
2. COc1nc2ncnc(N3CCC(CCNS(N)(=O)=O)CC3)c2n1C [Example 218] | >42.9
3. COc1ccc2c(-c3ccc(C(C)(C)NS(N)(=O)=O)cc3)ccnc2c1 [Example 357] | >18
4. COc1cc2nccc(N3CC4(C3)CN(S(N)(=O)=O)C4)c2cc1OC [Example 214] | > 15.3
5. COc1cc2ncc(C(N)=O)c(N3CCC(CCNS(N)(=O)=O)CC3)c2cc1OC [Example 19] | >95.8

----------
molecular target: ENPP1 (Homo sapiens); test: Substrate selectivity ratio, inhibition of cGAMP hydrolysis versus ATP hydrolysis; assay type: biochemical; details: ratio Ki AMP-pNP / Ki cGAMP
MEASURE: Substrate Selectivity: Ki_AMP-pNP/Ki_cGAMP

1. COc1ccc2c(Sc3ccc(NS(N)(=O)=O)cc3)ccnc2c1 [Example 302] | >13.0
2. COc1cc2nccc(Oc3cc(F)c(NS(N)(=O)=O)c(F)c3)c2cc1OC [Example 271] | >16.2
3. COc1cc2c(-c3ccc(CNS(N)(=O)=O)cc3)c(C#N)cnc2cn1 [Example 235] | >97.7
4. COc1ccc2c(N3CCc4c3ccc(NS(N)(=O)=O)c4F)ccnc2c1 [Example 379] | >41
5. COc1cc2nccc(Oc3c(F)cc(NS(N)(=O)=O)cc3F)c2cc1OC [Example 197] | >49.7

Every entry's value here was drawn from patent US20230183239A1.
